Let's look at some compounds and their measured IC50.
# target_under_test: EHMT2 (Homo sapiens)
# Construct: host or cells: MDA-MB-231
# Sequence (Q96KQ7 whole entry): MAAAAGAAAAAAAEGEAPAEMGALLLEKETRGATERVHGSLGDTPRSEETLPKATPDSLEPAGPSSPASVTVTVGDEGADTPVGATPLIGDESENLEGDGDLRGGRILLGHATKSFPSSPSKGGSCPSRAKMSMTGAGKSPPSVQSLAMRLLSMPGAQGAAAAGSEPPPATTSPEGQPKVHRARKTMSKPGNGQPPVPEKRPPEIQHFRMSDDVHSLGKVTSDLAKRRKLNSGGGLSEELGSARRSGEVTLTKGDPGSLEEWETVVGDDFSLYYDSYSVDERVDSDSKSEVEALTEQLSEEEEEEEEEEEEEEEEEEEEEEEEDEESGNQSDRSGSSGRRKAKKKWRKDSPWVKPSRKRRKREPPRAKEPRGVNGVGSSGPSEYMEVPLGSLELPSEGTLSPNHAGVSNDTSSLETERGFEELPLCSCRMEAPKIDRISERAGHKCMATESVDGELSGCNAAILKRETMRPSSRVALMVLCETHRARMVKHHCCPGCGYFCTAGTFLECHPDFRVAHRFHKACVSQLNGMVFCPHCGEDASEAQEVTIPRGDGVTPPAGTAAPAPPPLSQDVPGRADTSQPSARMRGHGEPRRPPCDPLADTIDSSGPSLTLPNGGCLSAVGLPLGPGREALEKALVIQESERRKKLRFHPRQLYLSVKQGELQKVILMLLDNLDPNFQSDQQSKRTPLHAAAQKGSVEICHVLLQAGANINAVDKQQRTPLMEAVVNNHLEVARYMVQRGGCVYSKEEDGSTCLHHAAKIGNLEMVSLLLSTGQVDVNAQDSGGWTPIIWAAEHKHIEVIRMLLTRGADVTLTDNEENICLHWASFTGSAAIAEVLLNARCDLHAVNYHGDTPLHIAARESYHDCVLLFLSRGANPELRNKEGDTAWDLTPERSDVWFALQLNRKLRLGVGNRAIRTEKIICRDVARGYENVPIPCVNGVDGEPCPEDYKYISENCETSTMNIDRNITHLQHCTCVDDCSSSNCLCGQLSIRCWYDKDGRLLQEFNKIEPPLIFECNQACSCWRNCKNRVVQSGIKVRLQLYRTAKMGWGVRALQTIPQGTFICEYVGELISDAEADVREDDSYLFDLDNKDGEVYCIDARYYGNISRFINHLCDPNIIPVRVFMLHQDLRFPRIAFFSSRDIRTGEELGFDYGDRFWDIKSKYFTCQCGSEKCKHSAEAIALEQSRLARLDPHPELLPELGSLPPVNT
# test_description: MDA-MB-231 H3K9me2 in-cell Western assay (EHMT2 ICW)
# Format: cell-based
# condition_description: H3K9me2 in-cell Western, MDA-MB-231 cells; read-out: EHMT2 ICW (IC50 μM)

compound	IC50
COc1ccc(Nc2nccc3[nH]ncc23)cc1OCCCN1CCCC1	> 10 µM
CNc1cc(C)nc(Nc2ccc(OC)c(OCCCN(C)C3CC3)c2)n1	0.1 to 1 µM
CN1CCC(COc2ccc(NC3CCNCC3)nc2)C1 (stereo not shown)	> 10 µM
CNc1ccnc(Nc2ccc(OC)c(OC[C@@H]3CN(C)C[C@@H]3C)c2)n1	1 to 10 µM
COc1ccc(NC2CCNCC2)cc1OCCCN1CCCC1	> 10 µM
CNc1cc(C)nc(Nc2cnc(C3CC3)c(OCCCN3CCCC3)c2)n1	1 to 10 µM
c1nc(NC2CCNCC2)ncc1OCCCN1CCCC1	> 10 µM
CCc1ncc(Nc2nc(C)cc(NC)n2)cc1OCCCN1CCCC1	1 to 10 µM
CCN1CC(COc2cc(Nc3cc(NC)ncc3F)ncc2OC)C1	> 10 µM
CNc1cc(Nc2cc(OC[C@@H]3CCN(C)C3)c(OC)cn2)nc(C)n1	1 to 10 µM
COc1cnc(Nc2ccnc3[nH]ncc23)cc1OCCCN1CCCC1	> 10 µM
CNc1ccnc(Nc2ccc(OC)c(OCCOC3CC3)c2)n1	> 10 µM
COc1cc2c(C3CCN(C)CC3)cc(C)nc2cc1OCCCN1CCCC1	0.1 to 1 µM
CNc1cc(C)nc(Nc2ccc(OC)c(OC[C@H]3CCN(C4CC4)C3)c2)n1 (single isomer, unassigned)	1 to 10 µM
CN1CCC(COc2cnc(NC3CCNCC3)nc2)C1 (stereo not shown)	> 10 µM
CNc1nc(C2CCN(CCO)CC2)c2cc(OC)c(OCCCN3CCCC3)cc2n1	0.1 to 1 µM
CCN1CC[C@@H](COc2cc(Nc3nc(C)cc(NC(C)C)n3)ccc2OC)C1	0.1 to 1 µM
CNc1ccnc(Nc2cc(OCCCN3CCCC3)c3[nH]ncc3c2)n1	> 10 µM
CNc1cc(C)nc(Nc2cc(Cl)c(OC)c(OCCCN3CCCC3)c2)n1	1 to 10 µM

----------
# target_under_test: EHMT1 (Homo sapiens, UniProt Q9H9B1)
# Sequence (Q9H9B1 whole entry, species assumed): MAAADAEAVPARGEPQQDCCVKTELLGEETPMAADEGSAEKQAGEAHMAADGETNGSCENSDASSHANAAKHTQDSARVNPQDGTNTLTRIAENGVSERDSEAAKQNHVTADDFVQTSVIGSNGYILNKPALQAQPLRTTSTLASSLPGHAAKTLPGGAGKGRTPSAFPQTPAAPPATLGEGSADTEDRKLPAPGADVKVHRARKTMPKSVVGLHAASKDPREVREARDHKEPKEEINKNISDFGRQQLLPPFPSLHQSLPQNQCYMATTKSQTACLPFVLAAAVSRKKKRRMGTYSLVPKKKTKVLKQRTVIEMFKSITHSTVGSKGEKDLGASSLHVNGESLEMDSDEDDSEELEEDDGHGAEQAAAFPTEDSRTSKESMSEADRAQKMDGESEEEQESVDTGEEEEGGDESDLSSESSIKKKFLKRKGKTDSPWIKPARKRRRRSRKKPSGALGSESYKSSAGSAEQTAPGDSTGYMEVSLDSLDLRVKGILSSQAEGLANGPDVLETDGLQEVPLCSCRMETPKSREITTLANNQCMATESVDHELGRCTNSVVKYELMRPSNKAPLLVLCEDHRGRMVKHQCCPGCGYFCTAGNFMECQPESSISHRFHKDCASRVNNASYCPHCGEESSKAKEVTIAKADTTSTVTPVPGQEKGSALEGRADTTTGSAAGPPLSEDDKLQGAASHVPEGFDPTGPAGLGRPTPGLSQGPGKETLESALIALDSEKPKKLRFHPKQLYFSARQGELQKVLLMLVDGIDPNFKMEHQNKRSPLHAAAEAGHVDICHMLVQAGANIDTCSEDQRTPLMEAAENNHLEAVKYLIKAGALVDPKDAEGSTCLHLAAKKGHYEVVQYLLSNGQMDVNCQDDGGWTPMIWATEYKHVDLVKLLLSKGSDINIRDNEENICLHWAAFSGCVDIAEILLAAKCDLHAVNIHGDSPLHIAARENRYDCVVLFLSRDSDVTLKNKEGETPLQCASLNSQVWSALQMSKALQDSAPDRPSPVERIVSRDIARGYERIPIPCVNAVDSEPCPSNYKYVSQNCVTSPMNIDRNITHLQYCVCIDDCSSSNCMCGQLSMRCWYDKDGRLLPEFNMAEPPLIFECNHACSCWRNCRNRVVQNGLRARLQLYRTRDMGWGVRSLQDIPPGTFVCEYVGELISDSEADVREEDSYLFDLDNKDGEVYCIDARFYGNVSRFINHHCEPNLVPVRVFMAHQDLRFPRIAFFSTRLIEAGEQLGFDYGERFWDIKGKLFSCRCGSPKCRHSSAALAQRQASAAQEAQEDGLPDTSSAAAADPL
# test_description: EHMT1 enzyme assay on peptide substrate (EHMT1 PEP)
# Assay type: biochemical
# condition_description: Table III; read-out: EHMT1 PEP (IC50 μM)
Measured IC50, listed per entry.

compound	IC50
CNc1ncc(C(F)(F)F)c(Nc2ccc(OC)c(OCCCN3CCCC3)c2)n1	> 10 µM
COc1ccc(Nc2nccc3[nH]ccc23)cc1OCCCN1CCCC1	1 to 10 µM
COc1ccc(Nc2nccc(NCC3COC3)n2)cc1OCCCN1CCCC1	> 10 µM
COc1ccc(Nc2nccc(NCC3CCOCC3)n2)cc1OC1CCC2(CC1)CCN(C)C2 (centres unmarked)	> 10 µM
CNc1ccnc(Nc2ccc(OC)c(OCCCN3CCC(O)C3)c2)n1 (centres unmarked)	0.1 to 1 µM

----------
# target_under_test: human EHMT2 913-1193 (Homo sapiens)
# Construct: recombinant purified human EHMT2 913-1193, Viva; purchased Viva
# Sequence (Q96KQ7 913-1193): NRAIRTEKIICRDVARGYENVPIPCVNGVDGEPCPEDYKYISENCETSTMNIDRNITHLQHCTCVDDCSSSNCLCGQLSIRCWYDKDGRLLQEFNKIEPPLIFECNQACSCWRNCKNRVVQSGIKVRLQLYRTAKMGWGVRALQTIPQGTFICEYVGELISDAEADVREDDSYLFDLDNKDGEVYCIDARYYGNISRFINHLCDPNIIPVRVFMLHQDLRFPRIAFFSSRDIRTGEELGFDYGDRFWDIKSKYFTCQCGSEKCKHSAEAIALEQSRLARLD
# test_description: EHMT2 enzyme assay on histone peptide substrate (EHMT2 PEP)
# Format: biochemical
# condition_description: Table II; read-out: EHMT2 PEP (IC50 μM)
result_type: IC50

compound	result_type	result
CN1CCC(CNc2nccc(NCCNC(=O)c3ccc4c(c3)CC(=O)N4)n2)CC1 [Compound 97]	IC50	1 to 10 µM
COc1ccc(Nc2nccc(N(C)CC3CCOCC3)n2)cc1OCCCN1CCCC1 [Compound 146]	IC50	> 10 µM
CCCCNc1nccc(NC2CCNCC2)n1 [Compound 64]	IC50	> 10 µM
CCCCNc1ccnc(NCCCN(C)C)n1 [Compound 78]	IC50	> 10 µM
COc1ccc(Nc2cc(C)nc3ncnn23)cc1OCCCN1CCCC1 [Compound 202]	IC50	> 10 µM
COc1ccc(Nc2nccc(NCC(C)(C)O)n2)cc1OCCCN1CCCC1 [Compound 42]	IC50	0.1 to 1 µM
COc1ccc(Nc2nccc(N(C)Cc3ccccn3)n2)cc1OCCCN1CCCC1 [Compound 136]	IC50	1 to 10 µM
CCOC(=O)N1CCC(CNc2ccnc(Nc3ccc(OC)c(OCCCN4CCCC4)c3)n2)CC1 [Compound 203]	IC50	0.1 to 1 µM
COc1ccc(Nc2nccc(-n3nc(C)cc3C)n2)cc1OCCCN1CCCC1 [Compound 214]	IC50	> 10 µM
COc1ccc(Nc2nccc(NCC3CCN(C(C)=O)CC3)n2)cc1OC(C)CCN1CCCC1 (stereo not drawn) [Compound 195]	IC50	1 to 10 µM
CNc1ccnc(Nc2cccc(OC[C@@H](O)CN3CCCC3)c2)n1 [Compound 253]	IC50	> 10 µM
COc1ccc(Nc2nccc(NCC3CCN(S(C)(=O)=O)CC3)n2)cc1OCCCN1CCCC1 [Compound 199]	IC50	0.1 to 1 µM
CC(=O)N1CCC(CNc2ccnc(Nc3cccc(NC(=O)c4cn(C5CC5)nn4)c3)n2)CC1 [Compound 123]	IC50	> 10 µM
CCCCNc1nccc(NCC2CCCO2)n1 (stereo not drawn) [Compound 67]	IC50	> 10 µM
CNc1ccnc(Nc2cccc(OC[C@H](O)CN3CCCC3)c2)n1 [Compound 252]	IC50	1 to 10 µM
CNc1cc(Nc2ccc(OC)c(OCCCN3CCCC3)c2)cnn1 [Compound 188]	IC50	0.1 to 1 µM
COc1ccc(Nc2nccc(NC3CCN(C(C)=O)CC3)n2)cc1OCCCN1CCCC1 [Compound 54]	IC50	0.1 to 1 µM
COCCN(C)c1ccnc(Nc2ccc(OC)c(OCCCN3CCCC3)c2)n1 [Compound 177]	IC50	1 to 10 µM

----------
# target_under_test: EHMT1 (Homo sapiens, UniProt Q9H9B1)
# test_description: EHMT1 enzyme assay on peptide substrate (EHMT1 PEP)
# Format: biochemical
# condition_description: read-out: EHMT1 PEP (IC50 μM)

compound	IC50
COc1cnc(Nc2cccc3cncn23)cc1OCCCN1CCCC1 [Compound 589]	> 10 µM
CCCCNc1nccc(NC)n1 [Compound 543]	> 10 µM
CNc1cc(C)nc(Nc2cnc(OC)c(OC[C@@H]3CCN(C4CC4)C3)c2)n1 [Compound 512]	< 0.1 µM
CNc1ccnc(NC2(C)CCCNC2)n1 (stereo not drawn) [Compound 546]	> 10 µM
CNc1cc(C)nc(Nc2ccc(OC)c(OCCCN3CC4(CC4)C3)c2)n1 [Compound 574]	1 to 10 µM
c1nc(NC2CCOCC2)ncc1OCC1CCN(C2CC2)C1 (stereo not drawn) [Compound 557]	> 10 µM
CNc1nc(C2CCN(C(C)C)CC2)c2cc(OC)c(OC[C@@H]3CCN(C4CC4)C3)cc2n1 [Compound 526]	< 0.1 µM
CNc1nc(C2CCN(C)CC2)c2cc(OC)c(OCCCN3CC4CC4C3)cc2n1 (stereo not drawn) [Compound 532]	< 0.1 µM
CNc1cc(C)nc(Nc2ccc(OC)c([C@H]3C[C@@H]3CN(C)C)c2)n1 [Compound 487]	0.1 to 1 µM
CNc1cc(C)nc(Nc2ccc(OC)c(OC[C@H]3CCN(C4CC4)C3)c2)n1 (single isomer, unassigned) [Compound 482]	0.1 to 1 µM
CNc1cc(C)nc(Nc2ccc(OC)c(OC[C@@H]3CN(C)C[C@H]3O)c2)n1 [Compound 491]	< 0.1 µM
CNc1cc(C)nc(Nc2ccc(OC)c(OCCC3CN(C)C3)c2)n1 [Compound 508]	1 to 10 µM
COc1cc(NC2CCNCC2)ccc1OCCCN1CCCC1 [Compound 579]	1 to 10 µM
CNc1cc(C)nc(Nc2ccc(OC)c(OCC3CN(C4CCOC4)C3)c2)n1 (stereo not drawn) [Compound 580]	> 10 µM
CNc1cc(C)nc(Nc2ccc(OC)c(OCC3CN(C(C)C)C3)c2)n1 [Compound 559]	< 0.1 µM
CNc1ccnc(Nc2ccc(OC)c(OCc3ncn(C4CC4)n3)c2)n1 [Compound 480]	> 10 µM
CCc1ncc(Nc2nc(C)cc(NC)n2)cc1OCCCN1CCCC1 [Compound 515]	1 to 10 µM
CNc1cc(C)nc(Nc2cc(OC[C@@H]3CCN(C)C3)c(OC)cn2)c1 [Compound 475]	< 0.1 µM
CC(C)N1CC(COc2cnc(NC3CCNCC3)nc2)C1 [Compound 588]	> 10 µM
CCN1CC(C(O)Oc2cc(Nc3nc(C)cc(NC)n3)ccc2OC)C1 (stereo not drawn) [Compound 560]	0.1 to 1 µM
COc1cnc(Nc2nc(C)cc3[nH]ccc23)cc1OCC1CCN(C2CC2)C1 (stereo not drawn) [Compound 494]	< 0.1 µM
CCN1CC(C(C#N)Oc2cc(Nc3nc(C)cc(NC)n3)ccc2OC)C1 (stereo not drawn) [Compound 562]	1 to 10 µM
CNc1cc(Nc2cc(OC[C@@H]3CCN(C)C3)c(OC)cn2)nc(C)n1 [Compound 473]	0.1 to 1 µM
CNc1nc(C2CCNCC2)c2cc(OC)c(OCCCN3CCCC3)cc2n1 [Compound 520]	< 0.1 µM
CNc1cc(C)nc(Nc2ccc(OC)c(O)c2)n1 [Compound 561]	> 10 µM
COc1ncc(Nc2nc(C)cc(NCC3CCOCC3)n2)cc1OC[C@@H]1CCN(C2CCC2)C1 [Compound 595]	0.1 to 1 µM
CNc1cc(C)nc(Nc2ccc(OC)c([C@H]3C[C@H]3CN(C)C)c2)n1 [Compound 488]	< 0.1 µM
CCCCN1CCCC(C)(Nc2nccc(NC)n2)C1 (stereo not drawn) [Compound 549]	> 10 µM
CNc1ccnc(NC2CCCNC2)n1 (stereo not drawn) [Compound 541]	> 10 µM
COc1cc2c(C3CCN(C)CC3)cc(C)nc2cc1OCCCN1CCCC1 [Compound 536]	< 0.1 µM
CNc1cc(C)nc(Nc2ccc(OC)c(OC[C@@H]3CCN(C4CCC4)C3)c2)n1 [Compound 563]	< 0.1 µM
CNc1cc(C2CCN(C)CC2)c2cc(OC)c(OCCCN3CCCC3)cc2n1 [Compound 535]	< 0.1 µM
COc1cc2c(C3CCN(C)CC3)nc(N3CCC(F)(F)CC3)nc2cc1OCCCN1CCCC1 [Compound 528]	0.1 to 1 µM
CNc1cc(C)nc(Nc2ccc(OC)c(OCC3CCN(C4CC4)C3)c2)n1 (stereo not drawn) [Compound 457]	< 0.1 µM
CNc1cc(C)nc(Nc2ccc(OC)c(OCC3CCCN(C4CC4)C3)c2)n1 (stereo not drawn) [Compound 517a]	0.1 to 1 µM
CNc1cc(C)nc(Nc2ccc(OC)c(OC[C@H]3CCCN(C4CC4)C3)c2)n1 [Compound 517b]	0.1 to 1 µM

The measured values listed here are drawn from patent US20210198277A1.
